System: neuronal uptake of 5-hydroxytryptamine
Experiment: Inhibition of the uptake of ^14 C-5-HT in vitro (slices of mouse midbrain)
Assay type: biochemical
Conditions: in vitro, mouse brain slices, 1×10^-7 M ^14 C-5-HT, 5 min
Description: The test substances were administered intraperitoneally half an hour before the animals were killed. […] The incubation time was 5 minutes with 5 minutes of preincubation before the labelled amines were added. The slices were dissolved in Soluene® and the amounts of radioactive amines taken up were determined by liquid scintillation. […] Active uptake is defined as that part of the radioactive uptake which is inhibited by a high concentration of cocaine. […]
Where a name gives a salt, the structure may show the parent alone.
Below, each of the molecules is paired with its reported pEC50 value.
Value format note: pEC50 is -log10 of concentration (mol/L); just state the number.

[
  {
    "MOLECULE": "CN(C)CC=C(c1cccnc1)c1ccccc1Br [2-Br CH3 E/Z 1:1]",
    "pEC50": 5.46
  },
  {
    "MOLECULE": "CNC/C=C(\\c1cccnc1)c1cccc(Br)c1 [Example 8, oxalate]",
    "pEC50": 5.85
  },
  {
    "MOLECULE": "CNC/C=C(\\c1cccnc1)c1ccc(Cl)cc1Cl [Example 10, oxalate]",
    "pEC50": 6.30
  },
  {
    "MOLECULE": "CNCC=C(c1cccnc1)c1ccccc1Br [2-Br H E/Z 1:1]",
    "pEC50": 5.82
  },
  {
    "MOLECULE": "CNCC=C(c1cccnc1)c1ccc(Cl)cc1Cl [2,4-di Cl H E/Z 1:1]",
    "pEC50": 6.30
  },
  {
    "MOLECULE": "CN(C)C/C=C(/c1ccc(I)cc1)c1cccnc1.O=C(O)C(=O)O [Example 11, oxalate]",
    "pEC50": 5.89
  },
  {
    "MOLECULE": "CNC/C=C(\\c1cccnc1)c1ccccc1Br [Example 7, oxalate]",
    "pEC50": 6.22
  },
  {
    "MOLECULE": "CN(C)C/C=C(/c1ccc(Cl)cc1)c1cccnc1 [Example 2, oxalate]",
    "pEC50": 5.96
  }
]

Problem: Item CN(C)C/C=C(\c1cccnc1)c1ccccc1Br [Example 6, oxalate] has what recorded pEC50?
Result: 5.38

Problem: Item CN(C)C/C=C(\c1cccnc1)c1cccc(Cl)c1.O=C(O)C(=O)O [Example 1, oxalate] has what recorded pEC50?
Result: 5.57
